- System name: human TRPM8 (Homo sapiens)
- Construct: expressed in transfected cells; host or cells: Chinese hamster ovary (CHO) cells, T-REx tetracycline-inducible expression system (Invitrogen); co-transfected with pcDNA3.1 aequorin
- Sequence (Q7Z2W7 whole entry): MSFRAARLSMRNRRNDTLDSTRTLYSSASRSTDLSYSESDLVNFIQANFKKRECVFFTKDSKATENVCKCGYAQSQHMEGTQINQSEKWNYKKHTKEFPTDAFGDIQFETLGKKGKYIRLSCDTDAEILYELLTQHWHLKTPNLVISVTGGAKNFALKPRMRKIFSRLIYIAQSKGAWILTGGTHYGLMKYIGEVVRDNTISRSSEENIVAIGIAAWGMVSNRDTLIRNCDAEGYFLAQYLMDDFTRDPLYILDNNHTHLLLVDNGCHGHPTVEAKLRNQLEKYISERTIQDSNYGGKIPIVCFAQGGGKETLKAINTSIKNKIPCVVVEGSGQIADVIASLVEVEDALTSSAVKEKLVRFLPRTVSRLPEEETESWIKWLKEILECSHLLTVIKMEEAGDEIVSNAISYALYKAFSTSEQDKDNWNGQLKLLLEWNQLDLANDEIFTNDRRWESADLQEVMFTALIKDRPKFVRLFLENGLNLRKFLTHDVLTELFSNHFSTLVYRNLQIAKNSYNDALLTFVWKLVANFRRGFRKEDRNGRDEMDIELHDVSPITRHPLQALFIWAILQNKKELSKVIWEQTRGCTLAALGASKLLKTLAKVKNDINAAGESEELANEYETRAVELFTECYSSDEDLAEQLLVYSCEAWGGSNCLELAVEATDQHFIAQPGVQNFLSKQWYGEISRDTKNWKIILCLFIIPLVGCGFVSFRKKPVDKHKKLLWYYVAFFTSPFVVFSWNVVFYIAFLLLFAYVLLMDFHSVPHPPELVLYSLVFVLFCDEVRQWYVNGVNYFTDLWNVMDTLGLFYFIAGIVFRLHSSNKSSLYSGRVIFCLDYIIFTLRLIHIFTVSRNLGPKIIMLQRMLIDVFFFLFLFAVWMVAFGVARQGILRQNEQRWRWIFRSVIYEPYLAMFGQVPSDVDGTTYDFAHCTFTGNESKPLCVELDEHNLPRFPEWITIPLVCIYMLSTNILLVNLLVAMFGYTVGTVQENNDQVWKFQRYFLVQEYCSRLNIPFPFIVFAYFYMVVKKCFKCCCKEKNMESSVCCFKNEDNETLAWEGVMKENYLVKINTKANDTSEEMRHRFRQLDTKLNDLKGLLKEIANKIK
- Experiment: Luminescence readout assay for measuring intracellular calcium (aequorin, CHO cells expressing human TRPM8; icilin, L-menthol or cold activation)
- Format: cell-based
- Condition description: CHO cells expressing human TRPM8, icilin activation (1 μM), aequorin luminescence; read-out: hTRPM8 IC50
Structures can show the parent of a compound that is named as a salt.
Measure name: pIC50
In textbook form, pIC50 equals minus log to base ten of the concentration in mol/L.

Prompt line: I have this compound here, COc1cccc(-c2ccc([C@@]3(NC(=O)c4ccc(F)cc4)CCOc4cccnc43)cc2)c1O [Example 135] , and I need its recorded pIC50.
Response line: 6.95

Prompt line: I have this compound here, O=C(N[C@]1(c2ccc(OC(F)(F)F)cc2)CCOc2cccnc21)c1cccc2cccnc12 [Example 221, formate] , and I need its recorded pIC50.
Response line: 7.51

Prompt line: I have this compound here, O=C(N[C@]1(c2ccc(OC(F)(F)F)cc2)CCOc2cccnc21)c1cscn1 [Example 231, formate] , and I need its recorded pIC50.
Response line: 7.34

Prompt line: I have this compound here, O=C(Nc1cccnc1)N[C@]1(c2ccc(OC(F)(F)F)c(F)c2)CCOc2cccnc21 [Example 92] , and I need its recorded pIC50.
Response line: 7.27

Prompt line: I have this compound here, Cc1ccc2[nH]c(C(=O)N[C@]3(c4ccc(OC(F)(F)F)cc4)CCOc4cccnc43)cc2c1 [Example 222, formate] , and I need its recorded pIC50.
Response line: 5.70

Prompt line: I have this compound here, O=C(N[C@]1(c2ccc(OC(F)(F)F)c(F)c2)CCOc2cccnc21)N1CCC(F)(F)CC1 [Example 100] , and I need its recorded pIC50.
Response line: 6.73

Prompt line: I have this compound here, O=C(N[C@]1(c2ccc(C(F)(F)F)cc2)CCOc2cccnc21)c1ccncc1 [Example 46] , and I need its recorded pIC50.
Response line: 6.45

Prompt line: I have this compound here, O=C(N[C@]1(c2ccc(OC(F)(F)F)c(F)c2)CCOc2cccnc21)c1ccco1 [Example 308] , and I need its recorded pIC50.
Response line: 7.96

Prompt line: I have this compound here, O=C(Nc1cnccn1)N[C@]1(c2ccc(OC(F)(F)F)c(F)c2)CCOc2cccnc21 [Example 82] , and I need its recorded pIC50.
Response line: 6.87

Prompt line: I have this compound here, O=C(NC1(c2ccc(OC(F)(F)F)cc2)CCOc2cccnc21)c1ccccc1 (stereo not drawn) [Example 9] , and I need its recorded pIC50.
Response line: 7.42

Prompt line: I have this compound here, O=C(O)c1ccc(C(=O)N[C@]2(c3ccc(OC(F)(F)F)c(F)c3)CCOc3cccnc32)[nH]1 [Example 306] , and I need its recorded pIC50.
Response line: 6.80

Prompt line: I have this compound here, COC(=O)C1CCN(C(=O)N[C@]2(c3ccc(OC(F)(F)F)c(F)c3)CCOc3cccnc32)CC1 [Example 99] , and I need its recorded pIC50.
Response line: 6.97

Prompt line: I have this compound here, O=C(N[C@]1(c2ccc(C(F)(F)F)cc2)CCOc2ccccc21)c1ccccc1 (single isomer, unassigned) [Example 28] , and I need its recorded pIC50.
Response line: 5.78

Prompt line: I have this compound here, CNc1cc(C(=O)N[C@]2(c3ccc(OC(F)(F)F)c(F)c3)CCOc3cccnc32)cc(F)c1C(=O)O [Example 304] , and I need its recorded pIC50.
Response line: 7.55

Prompt line: I have this compound here, O=C(O)c1ccc(C(=O)N[C@]2(c3ccc(OC(F)(F)F)c(F)c3)CCOc3cccnc32)s1 [Example 336, trifluoroacetate] , and I need its recorded pIC50.
Response line: 7.07
